Source of measurements: patent US20050288299A1

Here we list compounds with their recorded IC50 when tested on p38α kinase (Homo sapiens, UniProt Q16539).
Sequence (Q16539 whole entry): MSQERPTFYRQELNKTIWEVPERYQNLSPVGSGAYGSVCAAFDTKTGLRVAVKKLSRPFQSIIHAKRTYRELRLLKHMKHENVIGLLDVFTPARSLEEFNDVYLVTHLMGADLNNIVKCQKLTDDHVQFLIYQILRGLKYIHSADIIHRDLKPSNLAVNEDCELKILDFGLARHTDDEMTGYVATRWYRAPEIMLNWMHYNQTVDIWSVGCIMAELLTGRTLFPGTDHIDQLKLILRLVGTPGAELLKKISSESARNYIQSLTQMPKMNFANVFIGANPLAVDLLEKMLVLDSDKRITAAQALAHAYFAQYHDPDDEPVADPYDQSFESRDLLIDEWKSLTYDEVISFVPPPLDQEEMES
REPORTED_PROPERTY: IC50 (nM)

These solved cases illustrate the format of a correct answer.
# COMPOUND, OBSERVED_MEASUREMENT
records = [
    ("COc1nc2[nH]cc(C(=O)C(N)=O)c2cc1C(=O)N1CCC(Cc2ccc(F)cc2)CC1 [compound 17]", 57),
    ("C[C@@H]1CN(Cc2ccc(F)cc2)[C@@H](C)CN1C(=O)c1ccc2[nH]ccc2n1 [compound 67]", 750),
    ("CNC(=O)C(=O)c1c[nH]c2nc(OC)c(C(=O)N3CCN([C@H](C)c4ccc(F)cc4)C[C@H]3C)cc12 [compound 32]", 30),
    ("COc1nc2[nH]cc(C(=O)C(N)=O)c2cc1C(=O)N1C[C@H](C)N(Cc2ccc(F)cc2)C[C@H]1C [compound 30]", 10),
    ("CCNC(=O)C(=O)c1c[nH]c2nc(OCC)c(C(=O)N3C[C@H](C)N(Cc4ccc(F)cc4)C[C@H]3C)cc12 [compound 57]", 30),
]

1: CNC(=O)C(=O)c1c[nH]c2cc(Cl)c(C(=O)N3C[C@H](C)N(Cc4ccc(F)cc4)C[C@H]3C)nc12 [compound 73]
2: COc1nc2c(cc1C(=O)N1C[C@H](C)N(Cc3ccc(F)cc3)C[C@H]1C)c(C(=O)C(=O)NC(C)C)cn2C [compound 49]
3: COc1nc2[nH]cc(C(=O)C(=O)N3CCCC3)c2cc1C(=O)N1C[C@H](C)N(C(c2ccccc2)c2ccccc2)C[C@H]1C [compound 23]
4: COc1nc2c(cc1C(=O)N1C[C@H](C)N(Cc3ccc(F)cc3)C[C@H]1C)c(C(=O)C(=O)N(C)C)cn2C [compound 43]
IN: Returns the items ordered by IC50, from maximum to minimum. Answer by writing out the labels in the requested order.
OUT: 3, 2, 1, 4
